System: U-251
PROCEDURE DETAILS: NCI tumour cell line growth inhibition, 48 h
Activity calls are given as the source filed them. No stated cut-off is given here; in the data, active = GI50 up to about 1.1 µM and inactive = higher.
Choose the fitting class; nothing outside class 1 (active), class 0 (inactive) is accepted.

[
  {
    "COMPOUND": "C=C(CN(CC)CC)C1(c2ccccc2)CC2(CCCC2)C(=O)O1 (stereo not given)",
    "ASSIGNED LABEL": "class 0"
  },
  {
    "COMPOUND": "CC1(C)N(OC2CCCCO2)C(c2ccccc2)C(c2ccccc2)=[N+]1[O-] (stereo not given)",
    "ASSIGNED LABEL": "class 0"
  },
  {
    "COMPOUND": "CC(C)(C)N/N=C(\\C(=O)Nc1nnc(S)[nH]1)C1C(=O)Nc2ccccc2[S+]1[O-] (stereo not given)",
    "ASSIGNED LABEL": "class 0"
  },
  {
    "COMPOUND": "CC(C)N(C(=O)C12C3C4C5(C#N)C3C1(C#N)C5C42I)C(C)C (stereo not given)",
    "ASSIGNED LABEL": "class 0"
  },
  {
    "COMPOUND": "CCCNC(=S)N/C=C1/C(=O)C=C(C)OC1=O",
    "ASSIGNED LABEL": "class 0"
  },
  {
    "COMPOUND": "CC[C@@]1(CCC(=O)NCCc2c[nH]c3ccccc23)CCC(=O)N2CCc3c([nH]c4ccccc34)[C@H]21",
    "ASSIGNED LABEL": "class 0"
  },
  {
    "COMPOUND": "Cc1cc(NS(=O)(=O)c2ccc(NC(=O)c3ccc4[nH]c5ccccc5c(=O)c4c3)cc2)no1",
    "ASSIGNED LABEL": "class 0"
  },
  {
    "COMPOUND": "O=C(NCc1ccccc1)c1cc2ccc(O)c(O)c2cn1",
    "ASSIGNED LABEL": "class 0"
  }
]

Outcome logged for "Cn1c(-c2cccs2)cc(-c2cccs2)c1-c1cccs1" in this assay:
class 0

Status in this test for COc1ccc(NC2Oc3cc4c(cc3C(c3cc(OC)c(OC)c(OC)c3)C2C)OCO4)cc1 (stereo not given) ?
class 1
